Quick reference: ED50 of the listed items.
test system: Rattus norvegicus; experiment: Effective dose required to cause 50% fall in mean blood pressure (BP) by the compound on iv administration; assay type: functional
Kindly answer with a numeric value in mg/kg, unit omitted.

These recorded examples may help you get a feel for the data.
{"columns": ["Molecule", "Unit descriptor", "ED50"],
 "data": [
  ["CO/N=C(\\Cl)C12CCCN(CC1)C2 (stereo unspecified)", "mg/kg", 0.32],
  ["CO/N=C(\\C#N)C12CCCN(CC1)C2 (stereo unspecified)", "mg/kg", 0.02],
  ["CO/N=C(\\F)C12CCCN(CC1)C2 (stereo unspecified)", "mg/kg", 0.03]
]}

// next entry
// query Write down the reported ED50 (system: Rattus norvegicus) of CO/N=C(\C)C12CCCN(CC1)C2 (stereo unspecified)
// result 0.068
